# Tested on: Hamster
# experiment.summary: Inhibition of human neutrophil elastase-induced lung hemorrhage in hamster at 10 mg/kg, iv administered as bolus dose
# Assay type: functional
# stated.conditions: Cricetinae
measurement.name: inhibition in vivo at 10 mg/kg (%)

mol.smiles | value.reported
CC(C)[C@H](NC(=O)[C@@H]1CCCN1C(=O)[C@@H](NC(=O)CN1C(=O)N(CC(=O)O)C(=O)C1(C)C)C(C)C)C(=O)c1nc2ccccc2o1 | 42
CC(C)[C@H](NC(=O)[C@@H]1CCCN1C(=O)[C@@H](NC(=O)CN1CCN(CC(=O)O)C(=O)C1=O)C(C)C)C(=O)c1nc2ccccc2o1 | 88
CC(C)[C@H](NC(=O)[C@@H]1CCCN1C(=O)[C@@H](NC(=O)CN1C(=O)CN(CC(=O)O)C1=O)C(C)C)C(=O)c1nc2ccccc2o1 | 72
CC(C)[C@H](NC(=O)[C@@H]1CCCN1C(=O)[C@@H](NC(=O)Cn1c(=O)ccn(CC(=O)O)c1=O)C(C)C)C(=O)c1nc2ccccc2o1 | 47
CC(C)[C@H](NC(=O)[C@@H]1CCCN1C(=O)[C@@H](NC(=O)CN1CC(=O)N(CC(=O)O)C1=O)C(C)C)C(=O)c1nc2ccccc2o1 | 67
CC(C)[C@H](NC(=O)[C@@H]1CCCN1C(=O)[C@@H](NC(=O)Cn1ccc(=O)n(CC(=O)O)c1=O)C(C)C)C(=O)c1nc2ccccc2o1 | 66
CC(C)[C@H](NC(=O)[C@@H]1CCCN1C(=O)[C@@H](NC(=O)CN1CCN(CC(=O)O)CC1)C(C)C)C(=O)c1nc2ccccc2o1 | 70
CC(C)[C@H](NC(=O)[C@@H]1CCCN1C(=O)[C@@H](NC(=O)CN1CC(=O)N(CC(=O)O)CC1=O)C(C)C)C(=O)c1nc2ccccc2o1 | 67
CC(C)[C@H](NC(=O)[C@@H]1CCCN1C(=O)[C@@H](NC(=O)CN1CCN(CC(=O)O)C1=O)C(C)C)C(=O)c1nc2ccccc2o1 | 68
CC(C)[C@H](NC(=O)[C@@H]1CCCN1C(=O)[C@@H](NC(=O)Cn1ncc(=O)n(CC(=O)O)c1=O)C(C)C)C(=O)c1nc2ccccc2o1 | 33
CC(C)[C@H](NC(=O)[C@@H]1CCCN1C(=O)[C@@H](NC(=O)CN1CCC(=O)N(CC(=O)O)C1=O)C(C)C)C(=O)c1nc2ccccc2o1 | 34
CC(C)[C@H](NC(=O)[C@@H]1CCCN1C(=O)[C@@H](NC(=O)COc1ccc(OCC(=O)O)cc1)C(C)C)C(=O)c1nc2ccccc2o1 | 38
Cc1cn(CC(=O)N[C@H](C(=O)N2CCC[C@H]2C(=O)N[C@H](C(=O)c2nc3ccccc3o2)C(C)C)C(C)C)c(=O)n(CC(=O)O)c1=O | 70
CC(C)[C@H](NC(=O)[C@@H]1CCCN1C(=O)[C@@H](NC(=O)CN1C(=O)N(CC(=O)O)C(C)(C)C1=O)C(C)C)C(=O)c1nc2ccccc2o1 | 59
Cc1nn(CC(=O)N[C@H](C(=O)N2CCC[C@H]2C(=O)N[C@H](C(=O)c2nc3ccccc3o2)C(C)C)C(C)C)c(=O)n(CC(=O)O)c1=O | 48

Reference for the values: ChEMBL document CHEMBL1152654
